Target: T1, human Factor XIIa-beta (human, UniProt P00748 354-615, limits assumed)
T1 construct: Bought from Enzyme Research Laboratories; also called FXIIa beta; FXIIa-beta
T1 sequence: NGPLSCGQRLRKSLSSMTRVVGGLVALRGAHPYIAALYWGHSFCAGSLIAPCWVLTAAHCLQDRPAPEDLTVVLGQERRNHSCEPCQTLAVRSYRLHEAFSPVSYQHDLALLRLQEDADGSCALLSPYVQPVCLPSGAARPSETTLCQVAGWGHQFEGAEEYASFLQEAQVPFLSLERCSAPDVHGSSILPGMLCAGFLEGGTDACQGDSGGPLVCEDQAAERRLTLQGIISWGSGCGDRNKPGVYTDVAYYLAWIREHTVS
Assay: SPR (Biacore), purified IgG4 captured on anti-human IgG, FXIIa beta 0-40 nM, 1:1 fit, 25 C
pKd: −log10 of the molar value.
Where pKd equals or exceeds 9, the correct label is 1; where it does not, the label is -1.

>>> class_assignment("VR110 (antibody, V domains shown) VH: EVQLLESGGGLVQPGGSLRLSCAASGFTFSKYIMQWVRQAPGKGLEWVSGIDMPTKGTVYADSVKGRFTISRDNSKNTLYLQMNSLRAEDTAVYYCARALPRSGYLISPHYYYYALDVWGQGTTVTVSS VL: QSELTQPPSASGTPGQRVTISCSGSSSNIGRNYVYWYQQVPGTAPKLLIYSNNQRPSGVPDRFSGSKSGTSASLVISGLRSEDEADYYCAAWDASLRGVFGGGTKLTVLG")
1
>>> class_assignment("VR115 (antibody, V domains shown) VH: EVQLLESGGGLVQPGGSLRLSCAASGFTFSKYIMQWVRQAPGKGLEWVSGIDIPTKGTVYADSVKGRFTISRDNSKNTLYLQMNSLRAEDTAVYYCARALPRSGYLISPHYYYYALDVWGQGTTVTVSS VL: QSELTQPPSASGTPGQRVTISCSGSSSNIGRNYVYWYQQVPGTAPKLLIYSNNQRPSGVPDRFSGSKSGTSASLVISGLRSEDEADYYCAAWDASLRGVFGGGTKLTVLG")
1
>>> class_assignment("monoclonal antibody 3F7 (fully human IgG4/lambda) (antibody, V domains shown, also called 3F7 mAb; MAb 3F7) VH: EVQLLESGGGLVQPGGSLRLSCAASGFTFSKYIMQWVRQAPGKGLEWVSGIRPSGGTTVYADSVKGRFTISRDNSKNTLYLQMNSLRAEDTAVYYCARALPRSGYLISPHYYYYALDVWGQGTTVTVSS VL: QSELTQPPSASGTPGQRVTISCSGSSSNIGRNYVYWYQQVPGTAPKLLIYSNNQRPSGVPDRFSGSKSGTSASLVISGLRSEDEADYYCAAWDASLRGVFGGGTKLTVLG")
-1
>>> class_assignment("VR119 (antibody, V domains shown) VH: EVQLLESGGGLVQPGGSLRLSCAASGFTFSKYIMQWVRQAPGKGLEWVSGINVPLYGTVYADSVKGRFTISRDNSKNTLYLQMNSLRAEDTAVYYCARALPRSGYLISPHYYYYALDVWGQGTTVTVSS VL: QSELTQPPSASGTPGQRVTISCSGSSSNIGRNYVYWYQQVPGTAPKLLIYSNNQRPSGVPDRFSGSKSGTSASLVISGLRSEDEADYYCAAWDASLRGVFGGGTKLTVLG")
1
>>> class_assignment("VR24 (antibody, V domains shown) VH: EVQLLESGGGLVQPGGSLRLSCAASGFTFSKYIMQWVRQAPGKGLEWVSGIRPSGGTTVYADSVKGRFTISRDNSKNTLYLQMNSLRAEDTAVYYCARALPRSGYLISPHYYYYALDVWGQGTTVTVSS VL: QSVLTQPPSASGTPGQRVTISCSGSSEMTVHHYVYWYQQLPGTAPKLLIYSNNQRPSGVPDRFSGSKSGTSASLAISGLRSEDEADYYCAAWDASLRGVFGGGTKLTVLG")
1
>>> class_assignment("VR112 (antibody, V domains shown) VH: EVQLLESGGGLVQPGGSLRLSCAASGFTFSKYIMQWVRQAPGKGLEWVSGINVPVQGTVYADSVKGRFTISRDNSKNTLYLQMNSLRAEDTAVYYCARALPRSGYLISPHYYYYALDVWGQGTTVTVSS VL: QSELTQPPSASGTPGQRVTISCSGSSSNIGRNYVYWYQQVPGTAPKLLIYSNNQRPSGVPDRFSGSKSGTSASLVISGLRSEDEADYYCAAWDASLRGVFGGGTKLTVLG")
1
